Target: T1, human GIP receptor (human, UniProt P48546 22-466)
T1 sequence (looked up): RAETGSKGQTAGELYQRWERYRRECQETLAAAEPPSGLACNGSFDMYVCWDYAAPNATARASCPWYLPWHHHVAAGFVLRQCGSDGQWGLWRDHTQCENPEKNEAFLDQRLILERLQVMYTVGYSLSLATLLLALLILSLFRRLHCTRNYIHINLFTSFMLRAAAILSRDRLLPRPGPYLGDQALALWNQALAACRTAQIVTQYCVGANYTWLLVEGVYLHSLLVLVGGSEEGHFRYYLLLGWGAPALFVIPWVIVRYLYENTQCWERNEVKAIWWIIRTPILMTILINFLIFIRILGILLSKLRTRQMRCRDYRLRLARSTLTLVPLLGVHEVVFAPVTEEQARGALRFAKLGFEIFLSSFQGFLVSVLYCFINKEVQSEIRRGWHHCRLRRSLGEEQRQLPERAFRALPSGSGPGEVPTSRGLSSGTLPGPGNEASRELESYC
Assay: cell-based or functional assay
Bridges are numbered along the chain shown (N, C = ends). Where no end group is shown, it is not given here. [ ]: non-standard residue; d: D form. The star is where a group is joined. Acetyl(2-(4-imidazolyl)) = O=C(Cc1c[nH]cn1)*; Aib = CC(C)(N)C(=O)O
Please note: in vitro Activity Compared to Native Peptide (%), vs GIP exactly at 1% is False. Only values below 1% get True.

{"binder": "[Acetyl(2-(4-imidazolyl))][Aib]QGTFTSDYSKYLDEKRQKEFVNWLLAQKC (bridge 16-20; not fully specified (C-terminus)) [triple agonist of SEQ ID NO: 93]", "cat": "True"}
{"binder": "H[Aib]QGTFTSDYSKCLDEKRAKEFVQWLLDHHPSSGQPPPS (bridge 16-20; not fully specified (C-terminus)) [triple agonist of SEQ ID NO: 65]", "cat": "False"}
{"binder": "Y[Aib]QGTFTSDYSKALDEKAAKEFVNWLLDHHPSSGQPPPSC (bridge 16-20; not fully specified (C-terminus)) [triple agonist of SEQ ID NO: 98]", "cat": "False"}
{"binder": "Y[Aib]QGTFTSDYSKALDEKAAKEFVNWLLDQHPSSGQPPPSC (bridge 16-20; not fully specified (C-terminus); also: ring type not given here) [triple agonist of SEQ ID NO: 101]", "cat": "False"}
{"binder": "[Acetyl(2-(4-imidazolyl))][Aib]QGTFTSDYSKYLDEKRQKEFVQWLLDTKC (bridge 16-20; not fully specified (C-terminus)) [triple agonist of SEQ ID NO: 89]", "cat": "True"}
{"binder": "[Acetyl(2-(4-imidazolyl))][Aib]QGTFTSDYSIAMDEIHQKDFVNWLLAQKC (bridge 16-20; not fully specified (C-terminus)) [triple agonist of SEQ ID NO: 92]", "cat": "True"}
{"binder": "H[Aib]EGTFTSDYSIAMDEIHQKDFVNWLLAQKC (bridge 16-20; not fully specified (C-terminus)) [triple agonist of SEQ ID NO: 79]", "cat": "False"}
{"binder": "[Acetyl(2-(4-imidazolyl))]GEGTFISDYSIQLDEIAVQDFVEWLLAQKPSSGAPPPSHG-NH2 [triple agonist of SEQ ID NO: 13]", "cat": "True"}
{"binder": "Y[Aib]QGTFTSDYSKALDEKAAKEFVQWLLDQHPSSGQPPPSC (bridge 16-20; not fully specified (C-terminus); also: ring type not given here) [triple agonist of SEQ ID NO: 100]", "cat": "False"}
